// data source = the Deep4Chem optical property database

# protocol.summary: solvent given as SMILES
# experimental.context: in CC(C)=O
So basically: fluorescence lifetime at 5 ns or higher? That is yes. Lower than 5 ns? That is no.

Hi, just wondering whether CC1(C)C(/C=C/C2=C(c3ccc(C(=O)O)cc3)C(=C/C=C3/N(CCCCS(=O)(=O)[O-])c4ccc5ccccc5c4C3(C)C)/CCC2)=[N+](CCCCS(=O)(=O)[O-])c2ccc3ccccc3c21 shows fluorescence lifetime of 5 ns or higher.
no

Could you please find out whether CCCCCCC(CCCCCC)n1c(=O)c2c3ccc4cccc5c6cccc7ccc(c2c1=O)c(c76)c3c45 has fluorescence lifetime that meets 5 ns or exceeds it?
yes

# check: fluorescence lifetime of Cc1ccc(-c2cc(-c3ccccc3)c3c(N)nc(N4CCCC4)c(C#N)c3n2)cc1 is greater than or equal to 5 ns
yes

Is it the case that CCN(CC)c1ccc2nc3c4ccccc4c(=O)cc-3oc2c1 has fluorescence lifetime reaching or exceeding 5 ns?
no

Please indicate if the recorded fluorescence lifetime for COc1ccc(C2=CC(c3ccc4cc(N(C)C)ccc4c3)=[O+][B-](F)(F)O2)cc1 meets or exceeds 5 ns.
no

----------
# protocol.summary: solvent given as SMILES
# experimental.context: in CO
metric: log10 of fluorescence lifetime (log10 of the value in ns)
Log10 applied to fluorescence lifetime; unit prior to transform: ns.

What value of log10 of fluorescence lifetime has been recorded for this entry: Cc1cc(C)n2c1C=C1c3ccccc3C(c3ccc[nH]3)=[N+]1[B-]2(F)F
0.87

// log10 of fluorescence lifetime lookup, key: O=C(O)c1ccccc1Nc1cccc(C(F)(F)F)c1
0.71

Recorded log10 of fluorescence lifetime for Nc1ccc2c(c1)C(=O)c1ccc(N)cc1C2=O , please?
-0.47

Data request, read-out log10 of fluorescence lifetime, for COc1ccc(-c2c(-c3ccc(OC)cc3)c3c4c(cccc4c2-c2ccccc2)C(=O)c2ccccc2-3)cc1
-0.10

Please give the measured log10 of fluorescence lifetime for this compound: NS(=O)(=O)c1ccc(N2N=C(c3ccc(O)cc3)CC2c2ccc(Cl)cc2)cc1 (stereo unspecified)
0.23

Look up log10 of fluorescence lifetime for this compound: CCCn1c2cccc3oc4cccc5oc6cccc1c6[c+](c45)c32
1.32

Given the entry CCN(CC)c1ccc(/C=N/Nc2ccc(C#N)cc2)c(O)c1 , report its measured log10 of fluorescence lifetime.
0.21

Which measured log10 of fluorescence lifetime value corresponds to Nc1ccc2c(c1)Cc1ccccc1-2 ?
0.65

Please look up its log10 of fluorescence lifetime: COc1ccc(-c2nc3ccccc3nc2/C=C/N2CCCC2)s1
-0.66

Find the recorded log10 of fluorescence lifetime belonging to COc1ccc(C2=C3C=c4c(oc5cc6c(cc45)[C@H]4CC[C@]5(C)C(=O)CC[C@H]5[C@@H]4CC6)=[N+]3[B-](F)(F)n3c2cc2c4cc5c(cc4oc23)CC[C@@H]2[C@@H]5CC[C@]3(C)C(=O)CC[C@@H]23)cc1 and report it.
0.57

Tell me the measured log10 of fluorescence lifetime of CCOC(=O)C1=CN(c2ccccc2)C=CC1c1ccccc1 (stereo unspecified) , please.
0.88

Request the reported log10 of fluorescence lifetime associated with CCC1=C(C)C2=Cc3c(I)c(I)cn3[B-](F)(F)[N+]2=C1C
-1.06

What value of measured log10 of fluorescence lifetime is listed for Nc1cccc2cn[nH]c12 ?
0.23

Sample CCC1=C(C)C2=C(C)c3cccn3[B-](F)(F)[N+]2=C1C — what was its log10 of fluorescence lifetime?
0.76

Tell me the measured log10 of fluorescence lifetime of O=Cc1ccc2ccc3cccc4ccc1c2c34 , please.
-0.02

Field request: log10 of fluorescence lifetime | item: CSc1sc(C(=O)c2ccccc2)c2nn[nH]c(=O)c12
-0.66

Entry c1ccc2c(-c3cc(-c4nccs4)nc(-c4nccs4)c3)c3ccccc3cc2c1 has what log10 of fluorescence lifetime?
0.40

Quick one: log10 of fluorescence lifetime for C[Si](C)(C)c1ccc2ccc3cccc4ccc1c2c34 ?
2.24

Query (compound): CSc1ccc2c(c1)N(CCCN1CCN(C)CN1C)c1ccccc1S2 ; field requested: log10 of fluorescence lifetime
-0.02

Value lookup for log10 of fluorescence lifetime; key = CCC1=C(C)C2=C(C)c3c(I)c(I)cn3[B-](F)(F)[N+]2=C1C
-0.91

# lookup: log10 of fluorescence lifetime of c1ccc(-c2cc(-c3ccc(-c4nc(-c5ccccn5)c(-c5ccccn5)[nH]4)cc3)cc(-c3ccccn3)n2)nc1
0.15

----------
I'd be grateful if you could share measured fluorescence lifetime for these entries.
# protocol.summary: solvent given as SMILES
# experimental.context: in ClC(Cl)Cl
State just the number; it will be interpreted in ns.

For the compound Cc1ccc(C2=C3C=CC4=[N+]3[P-](=O)(=O)n3c2ccc3-c2ccc([nH]2)/C(c2ccc(C)cc2)=c2/cc/c(o2)=C(\c2ccc(C)cc2)c2ccc4[nH]2)cc1 , what fluorescence lifetime is on record?
4.3

Report fluorescence lifetime for N=c1oc2cccc3c4c(-c5ccccc5)oc5cccc(c(c1-c1ccccc1)c23)c54 please.
2.6

// query fluorescence lifetime value for entry CCCCCCC(CCCCCC)N1C(=O)c2cccc3c(-c4ccc(N(C)C)cc4)ccc(c23)C1=O
6.99

Look up fluorescence lifetime for this compound: Cc1ccc(-c2ccc(/C=C/c3cccn3C)cn2)nc1
0.62

----------
Kindly supply the reported fluorescence lifetime values for the records listed here.
# protocol.summary: solvent given as SMILES
# experimental.context: in CS(C)=O
Field: numeric (ns). Do not append units.

So what does the record say about fluorescence lifetime for Nc1ccccc1C(=O)O ?
8.7

Please report the recorded fluorescence lifetime for Cn1cc(-c2nc3ccccc3nc2/C=C/N2CCCC2)c2ccccc21 .
7.19

So what's the measured fluorescence lifetime for this one? O=[N+]([O-])c1ccc(-c2nc3c(c4c2-c2ccccc2CC4)-c2ccccc2CC3)cc1
1.09

Any idea what fluorescence lifetime was measured for CCOC(=O)CN1C(=O)C2=C(c3ccccc3)N(CC(=O)OCC)C(=O)C2=C1c1ccccc1 ?
7.34

Could you tell me which fluorescence lifetime is on file for c1ccc(-c2oc(-c3ccccc3)c3ccccc23)cc1 ?
5.3

Quick check: fluorescence lifetime of Cn1ccc(-c2nc3ccccc3nc2/C=C/N2CCCC2)c1 ?
5.54

Which fluorescence lifetime value is on record for Nc1ccc2c3cccc4cccc(c5cccc1c52)c43 ?
5.6

# query: fluorescence lifetime of entry Cn1c(=O)c(/N=N/c2ccc(S(=O)(=O)O)c3ccccc23)c(O)c2ccccc21
0.05

Field request: fluorescence lifetime | item: CCN(CC)c1ccc2cc(/C(Cl)=C/C=C/C(=C(C#N)C#N)c3ccc(N(c4ccccc4)c4ccccc4)cc3)c(=O)oc2c1
0.18

Fill blank: measured fluorescence lifetime of the molecule CSc1sc(C(N)=O)c2nnn(C)c(=O)c12 is ____.
5.4

Name the reported fluorescence lifetime value associated with the molecule CCCCCCC(CCCCCC)n1c(=O)c2c3ccc4cccc5c6cccc7ccc(c2c1=O)c(c76)c3c45
7.7

Could you share which fluorescence lifetime value was measured for N#Cc1c[nH]c2ccccc12 ?
0.2

Value lookup for fluorescence lifetime; key = CCOC(=O)c1ccccc1-c1c2ccc(=O)cc-2oc2cc(OC(=O)[C@H](CO[Si](C)(C)C(C)(C)C)NC(=O)OC(C)(C)C)ccc12
4.03

----------
# protocol.summary: solvent given as SMILES
# experimental.context: in C1CCOC1
Exercise: state measured log10 fluorescence lifetime for each of the compounds provided.
Quick note: numbers are log10 of fluorescence lifetime, with ns as the unit.

# get_value(readout='log10 fluorescence lifetime', item= CCOC(=O)C1=CNC=C(C(=O)OCC)C1c1ccccc1 )
0.89

Name the recorded log10 fluorescence lifetime for Cc1cc(-c2ccc(-n3c4ccccc4c4ccccc43)cc2)nc(-c2ccc(-n3c4ccccc4c4ccccc43)cc2)n1 .
0.63

Item COc1ccc(C(=Cc2ccc(C=O)cc2)c2ccc(OC)cc2)cc1 has what recorded log10 fluorescence lifetime?
0.83

What does the record list as log10 fluorescence lifetime for CCC1(CC)c2ccccc2-c2c1c1c(c3c2C(CC)(CC)c2cc(-c4cccs4)ccc2-3)C(CC)(CC)c2cc(N(c3ccccc3)c3ccccc3)ccc2-1 ?
0.23

Quick one: log10 fluorescence lifetime for COc1cc(OC)c(C2=C3C(C)=CC(C)=[N+]3[B-](F)(F)n3c(C)cc(C)c32)c(OC)c1 ?
0.76

If you can, please state the reported log10 fluorescence lifetime value of Clc1cnc2nn3ccccc3c2n1 .
0.79

Item under review: c1ccc(-c2nn(-c3ccccc3)c3nc4ccc(-n5c6ccccc6c6ccccc65)cc4cc23)cc1 . Reported log10 fluorescence lifetime?
1.28

I have this compound here, CCOC(=O)c1ccccc1-c1c2ccc(=O)cc-2oc2cc(OC(=O)[C@H](CO[Si](C)(C)C(C)(C)C)NC(=O)OC(C)(C)C)ccc12 , and I need its recorded log10 fluorescence lifetime.
0.36

Need log10 fluorescence lifetime, item COc1ccc(-c2cnc3nn4ccccc4c3c2)cc1
0.68

Would you mind telling me what log10 fluorescence lifetime value was observed for COc1ccc(-c2nc(-c3ccccc3O)c(-c3ccccc3O)n2-c2ccc(C)cc2)cc1 ?
0.40

Query (compound): c1ccc(-c2cnc3nn4ccccc4c3n2)cc1 ; field requested: log10 fluorescence lifetime
0.72

Please give the measured log10 fluorescence lifetime for this compound: COc1cc2c(cc1-c1ccccc1)Cc1c3c(c4c(c1-2)-c1cc(OC)c(-c2ccccc2)cc1C4)C(=O)N(CCC(C)C)C3=O
0.59

Could you tell me which log10 fluorescence lifetime is on file for CCc1c(C)[nH]c(C2=[N+]3C(=Cc4c(C)cc(C)n4[B-]3(F)F)c3ccccc32)c1C ?
0.64

Any idea what log10 fluorescence lifetime was measured for COc1ccc(-c2c3ccc([nH]3)c3nc(c(-c4ccc([N+](=O)[O-])cc4)c4ccc([nH]4)c4ccc([nH]4)c(-c4ccc(OC)cc4)c4ccc2o4)C=C3)cc1 ?
-0.18

For the compound Cn1ccc(-c2nc3ccccc3nc2/C=C/N2CCCC2)c1 , what log10 fluorescence lifetime is on record?
0.82

I would be grateful if you could share the reported log10 fluorescence lifetime for O=C1NC(=O)c2ccc(N3CCCCC3)c3cccc1c23 .
0.85

What does the data say about its log10 fluorescence lifetime? Entry: Cc1ccc(C2CC(c3ccc(O)cc3)=NN2c2ccc(S(N)(=O)=O)cc2)cc1 (stereo not drawn)
0.38

If you can, please state the reported log10 fluorescence lifetime value of Cc1nn(-c2ccccc2)c(C2=NN(c3ccc(Br)cc3)[C@@H](c3ccccc3)[C@@H]2c2ccccc2)c1C#N .
0.70
